Provenance of the data: PubChem BioAssay AID1159580

assayComment: chemical genetic growth profiling, strain panel (AID 1159580);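 note: tested at 20 µM; growth read once vehicle control cultures reached saturation at 30 °C; lower values mean less growth of the strain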
recordedConditions: S. cerevisiae deletion strains, growth OD, locus YGL253W, strain hxk2
Hit rate of the full screen: of about 5,500 compounds, about 2,000 (36%) were called active. Not shown: some 18% with an inconclusive outcome. Cut-off read from the data, not from the text of the source: active = normalized growth mostly below about 0.91 (no sharp cut-off); inconclusive = no clear call, values can overlap the other calls; inactive = mostly above about 0.92. This is one part of the list.
Respond using exactly one of the listed classes: active, inactive

See these solved cases before continuing.
molecule	discreteLabel
Cc1cc(=O)oc2cc(O)c(O)cc12	inactive
CCCSc1ccc2nc(NC(=O)OC)[nH]c2c1	inactive
CC(C)(C)NCC(O)c1ccc(O)c(CO)c1 (stereo not given)	inactive
CC(=O)O[C@H]1CCC2(C)C3=C(CCC2C1(C)C)[C@]1(C)CCC(C(C)CCC=C(C)C)[C@@]1(C)CC3 (stereo not given in full)	inactive
COC(=O)c1c(OC)cc2c(c1C)Oc1c(Cl)c(OC(C)=O)c(Cl)c(C)c1C(=O)O2	inactive

Please let me know the test result on file for NC1=NCCN1CC(=O)O . inactive

Please let me know the test result on file for CC(=O)O[C@H]1CC[C@@]2(C)C(=CC(=O)C3C4CCC(C(C)CCCC(C)C)[C@@]4(C)CCC32)C1 (stereo not given in full) . inactive

Please let me know the test result on file for COc1ccc2cc(CCC(C)=O)ccc2c1 . inactive

Please let me know the test result on file for COC(=O)c1c(OC)cc2c(c1C)Oc1c(Cl)c(O)c(Cl)c(C)c1C(=O)O2 . inactive

Please let me know the test result on file for Cc1nc(N)cc(C[n+]2csc(CCO)c2C)n1 . inactive

Please let me know the test result on file for CC(=O)Oc1cccc(O)c1 . inactive

Please let me know the test result on file for CC(=O)O[C@H]1CCC2(C)C3=C(CCC2C1(C)C)[C@@]1(C)CC[C@@H](C(C)CCC=C(C)C)[C@]1(C)CC3 (stereo not given in full) . inactive

Please let me know the test result on file for Cc1c(C)c2c(c(C)c1O)CCC(C)(CCCC(C)CCCC(C)CCCC(C)C)O2 (stereo not given) . inactive
